Measured The autosampler MCM ± SD (48h) values are reported for all entries that follow.
Assay: Stability of the analytes in human plasma at QC levels
Type: in vitro ADME
Settings: high QC; autosampler r.t., 48 h; n = 5

molecule: CCC(=O)OCC(=O)[C@@]1(OC(=O)CC)[C@@H](C)C[C@H]2[C@@H]3CCC4=CC(=O)C=C[C@]4(C)[C@@]3(F)[C@@H](O)C[C@@]21C [BDP, betamethasone dipropionate]
The autosampler MCM ± SD (48h): 43.33 ± 1.131 × 10^−9 mol·dm^−3
//
molecule: CCC(=O)OCC(=O)[C@@]1(O)[C@@H](C)C[C@H]2[C@@H]3CCC4=CC(=O)C=C[C@]4(C)[C@@]3(F)[C@@H](O)C[C@@]21C [B21P, betamethasone 21-monopropionate]
The autosampler MCM ± SD (48h): 3.924 ± 0.171 × 10^−9 mol·dm^−3
//
molecule: C[C@H]1C[C@H]2[C@@H]3CCC4=CC(=O)C=C[C@]4(C)[C@@]3(F)[C@@H](O)C[C@]2(C)[C@@]1(O)C(=O)CO
The autosampler MCM ± SD (48h): 63.95 ± 3.102 × 10^−9 mol·dm^−3
//
molecule: C[C@H]1C[C@H]2[C@@H]3CCC4=CC(=O)C=C[C@]4(C)[C@@]3(F)[C@@H](O)C[C@]2(C)[C@@]1(O)C(=O)COP(=O)([O-])[O-].[Na+].[Na+] [BSP, betamethasone sodium phosphate]
The autosampler MCM ± SD (48h): 359.2 ± 22.46 × 10^−9 mol·dm^−3
//
molecule: CCC(=O)O[C@]1(C(=O)CO)[C@@H](C)C[C@H]2[C@@H]3CCC4=CC(=O)C=C[C@]4(C)[C@@]3(F)[C@@H](O)C[C@@]21C [B17P, betamethasone 17-monopropionate]
The autosampler MCM ± SD (48h): 3.574 ± 0.531 × 10^−9 mol·dm^−3

###

Test: Stability of the analytes in human plasma at QC levels
Type: in vitro ADME
Settings: high QC; autosampler r.t., 24 h; n = 5
Examples of molecules with documented The autosampler Dev. (24h, %) follow.

molecule: CCC(=O)O[C@]1(C(=O)CO)[C@@H](C)C[C@H]2[C@@H]3CCC4=CC(=O)C=C[C@]4(C)[C@@]3(F)[C@@H](O)C[C@@]21C [B17P, betamethasone 17-monopropionate]
units symbol: %
The autosampler Dev. (24h, %): −12.14
--
molecule: C[C@H]1C[C@H]2[C@@H]3CCC4=CC(=O)C=C[C@]4(C)[C@@]3(F)[C@@H](O)C[C@]2(C)[C@@]1(O)C(=O)CO [BOH, betamethasone]
units symbol: %
The autosampler Dev. (24h, %): −10.82
--
molecule: CCC(=O)OCC(=O)[C@@]1(O)[C@@H](C)C[C@H]2[C@@H]3CCC4=CC(=O)C=C[C@]4(C)[C@@]3(F)[C@@H](O)C[C@@]21C [B21P, betamethasone 21-monopropionate]
units symbol: %
The autosampler Dev. (24h, %): −8.3
--
molecule: C[C@H]1C[C@H]2[C@@H]3CCC4=CC(=O)C=C[C@]4(C)[C@@]3(F)[C@@H](O)C[C@]2(C)[C@@]1(O)C(=O)COP(=O)([O-])[O-].[Na+].[Na+] [BSP, betamethasone sodium phosphate]
units symbol: %
The autosampler Dev. (24h, %): −2.94
--
molecule: CCC(=O)OCC(=O)[C@@]1(OC(=O)CC)[C@@H](C)C[C@H]2[C@@H]3CCC4=CC(=O)C=C[C@]4(C)[C@@]3(F)[C@@H](O)C[C@@]21C [BDP, betamethasone dipropionate]
units symbol: %
The autosampler Dev. (24h, %): −6.84
